- System name: mushroom tyrosinase (Agaricus bisporus, UniProt C7FF04)
- Sequence (C7FF04 1-392): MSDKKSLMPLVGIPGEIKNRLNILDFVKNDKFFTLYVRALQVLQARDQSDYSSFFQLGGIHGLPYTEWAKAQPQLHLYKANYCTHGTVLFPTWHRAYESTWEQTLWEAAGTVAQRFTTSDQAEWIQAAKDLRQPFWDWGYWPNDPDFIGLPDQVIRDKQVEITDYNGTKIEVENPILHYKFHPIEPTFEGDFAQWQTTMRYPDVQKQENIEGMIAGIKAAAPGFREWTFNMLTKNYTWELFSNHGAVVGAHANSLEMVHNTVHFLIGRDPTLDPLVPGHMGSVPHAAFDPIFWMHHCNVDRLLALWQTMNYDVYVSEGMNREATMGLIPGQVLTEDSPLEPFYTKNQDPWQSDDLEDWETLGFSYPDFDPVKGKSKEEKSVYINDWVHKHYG
- Test name: Mushroom tyrosinase inhibition assay (L-DOPA as substrate)
- Assay type: biochemical
- Measurement context: L-DOPA as the substrate; mean ± SEM of three to five independent experiments; read-out: IC50 against tyrosinase enzyme
Value type: IC50 (µM)

INSERT INTO results (chem_smiles, output_unit, reading) VALUES
  ('COc1cc(C(=O)N/N=C/c2ccc(Br)cc2)ccc1O', 'µM', 1.95),
  ('COc1cc(C(=O)N/N=C/c2ccc(O)cc2)ccc1O', 'µM', 15.2),
  ('COc1cc(C(=O)N/N=C/c2cccc([N+](=O)[O-])c2)ccc1O', 'µM', 5.84),
  ('COc1ccc(/C=N/NC(=O)c2ccc(O)c(OC)c2)cc1', 'µM', 35.6),
  ('COc1cc(C(=O)N/N=C/c2ccccc2[N+](=O)[O-])ccc1O', 'µM', 17);

I. COc1cc(C(=O)N/N=C/c2ccc([N+](=O)[O-])cc2)ccc1O
II. COc1ccc(/C=N/NC(=O)c2ccc(O)c(OC)c2)cc1O
Identify the entry with the larger IC50. Options: I and II Choose, then provide that item's label.
I

I. COc1cc(C(=O)N/N=C/c2cc(OC)c(O)c(OC)c2)ccc1O
II. COc1cc(C(=O)N/N=C/c2ccc(O)cc2O)ccc1O
Lower IC50: I or II ? Choose, then provide that item's label.
I

----------
Value type: melting point (°C)

INSERT INTO measurements (chem_smiles, value_type, reading) VALUES
  ('COc1ccc(/C=N/NC(=O)c2ccc(O)c(OC)c2)cc1', 'melting point', 110),
  ('COc1cc(C(=O)N/N=C/c2ccc(OC)c(OC)c2)ccc1O', 'melting point', 231),
  ('COc1cc(C(=O)N/N=C/c2cc(OC)c(O)c(OC)c2)ccc1O', 'melting point', 151),
  ('COc1cc(C(=O)N/N=C/c2ccc(O)cc2)ccc1O', 'melting point', 256),
  ('COc1cc(C(=O)N/N=C/c2cccc([N+](=O)[O-])c2)ccc1O', 'melting point', 151),
  ('COc1cc(C(=O)N/N=C/c2ccc(Br)cc2)ccc1O', 'melting point', 115),
  ('COc1cc(C(=O)N/N=C/c2ccc([N+](=O)[O-])cc2)ccc1O', 'melting point', 195);

1. COc1cc(C(=O)N/N=C/c2ccc(O)cc2O)ccc1O
2. COc1cc(C(=O)N/N=C/c2ccccc2[N+](=O)[O-])ccc1O
3. COc1ccc(/C=N/NC(=O)c2ccc(O)c(OC)c2)cc1O
Ascending by melting point, please: list the molecules accordingly. // respond by listing labels in the order requested
3, 2, 1

----------
- System name: mushroom tyrosinase (Agaricus bisporus, UniProt C7FF04)
- Test name: Mushroom tyrosinase inhibition assay (L-DOPA as substrate)
- Type: biochemical
Value type: pIC50
API: returns pIC50 as number; meaning -log10 of concentration in mol/L.

Please give the measured pIC50 for this compound: "CCOc1cc(/C=N/NC(=O)c2ccc(O)c(OC)c2)ccc1O"
5.80

// provenance: paper PMC7137441
